Source of measurements: paper PMC10567728

kon by entry:
# tested_on: uPAR (Homo sapiens, UniProt Q03405)
# Construct: Recombinant human uPAR^1–283 was expressed; made in house; host or cells: Drosophila melanogaster S2 cells
# Sequence (Q03405 23-305): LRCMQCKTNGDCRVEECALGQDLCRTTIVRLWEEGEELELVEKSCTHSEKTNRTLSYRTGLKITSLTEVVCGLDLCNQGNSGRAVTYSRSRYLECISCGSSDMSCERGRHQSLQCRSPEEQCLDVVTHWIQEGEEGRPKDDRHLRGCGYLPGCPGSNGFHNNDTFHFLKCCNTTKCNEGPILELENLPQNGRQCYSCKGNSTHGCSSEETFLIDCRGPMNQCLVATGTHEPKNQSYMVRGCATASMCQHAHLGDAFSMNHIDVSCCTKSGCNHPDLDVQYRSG
# assay_info: SPR real-time binding kinetics, peptides in solution and immobilised uPAR
# test_settings: single cycle SPR, immobilised uPAR, 20 °C; read-out: kon
Positions of bridges follow the written chain, without caps; N, C: chain ends. Non-standard residues stand in square brackets, D forms with d. Residues, ends and D or L forms follow the SMILES beside them. *: point of attachment. DOTA = O=C(O)CN1CCN(CC(=O)O)CCN(CC(=O)*)CCN(CC(=O)O)CC1; Cha = N[C@@H](CC1CCCCC1)C(=O)O
// return numeric value only (unit: M⁻¹ s⁻¹, not printed)

Examples with answers:
>>> measured_number("CC(C)C[C@H](NC(=O)[C@H](Cc1ccc(O)cc1)NC(=O)[C@@H](CCCCN)NC(=O)[C@@H](CO)NC(=O)[C@H](Cc1ccccc1)NC(=O)[C@H](CC1CCCCC1)NC(=O)[C@@H](N)CC(=O)O)C(=O)N[C@@H](Cc1c[nH]c2ccccc12)C(=O)N[C@@H](CO)C(=O)O [compound 2] (H-D[Cha]F[dS][dK]YLWS-OH; N-terminus assumed)")
594000
>>> measured_number("CC(C)C[C@H](NC(=O)[C@H](Cc1ccc(O)cc1)NC(=O)[C@@H](CCCNC(=N)N)NC(=O)[C@@H](CO)NC(=O)[C@H](Cc1ccccc1)NC(=O)[C@H](CC1CCCCC1)NC(=O)[C@@H](N)CC(=O)O)C(=O)N[C@@H](Cc1c[nH]c2ccccc12)C(=O)N[C@@H](CO)C(N)=O [compound 8]")
"1.89e+06"
>>> measured_number("CC(C)C[C@@H]1NC(=O)[C@H](Cc2ccc(O)cc2)NC(=O)[C@H](NC(=O)[C@@H](CO)NC(=O)[C@H](Cc2ccccc2)NC(=O)[C@H](CC2CCCCC2)NC(=O)[C@H](CC(=O)O)NC(=O)CNC(=O)CNC(=O)[C@@H](CO)NC(=O)CNC(=O)[C@H](CCC(=O)O)NC(=O)[C@H](CCC(=O)O)NC(=O)CN2CCN(CC(=O)O)CCN(CC(=O)O)CCN(CC(=O)O)CC2)CSSC[C@@H](C(=O)O)NC(=O)[C@H](Cc2c[nH]c3ccccc23)NC1=O [6b] ({DOTA}-EEG[dS]GGD[Cha]F[dS][dC]YLWC-OH; disulfide 11-15)")
481000
>>> measured_number("CC(C)C[C@@H]1NC(=O)[C@H](Cc2ccc(O)cc2)NC(=O)[C@H](NC(=O)[C@@H](CO)NC(=O)[C@H](Cc2ccccc2)NC(=O)[C@H](CC2CCCCC2)NC(=O)[C@H](CC(=O)O)NC(=O)CN2CCN(CC(=O)O)CCN(CC(=O)O)CCN(CC(=O)O)CC2)CSSC[C@@H](C(=O)O)NC(=O)[C@H](Cc2c[nH]c3ccccc23)NC1=O [3b] ({DOTA}-D[Cha]F[dS][dC]YLWC-OH; disulfide 5-9)")
352000

So what's the measured kon for this one? CC(C)C[C@H](NC(=O)[C@H](Cc1ccc(O)cc1)NC(=O)[C@@H](CO)NC(=O)[C@@H](CO)NC(=O)[C@H](Cc1ccccc1)NC(=O)[C@H](CC1CCCCC1)NC(=O)[C@H](CC(=O)O)NC(=O)CNC(=O)CNC(=O)[C@@H](CO)NC(=O)CNC(=O)[C@H](CCC(=O)O)NC(=O)[C@@H](N)CCC(=O)O)C(=O)N[C@@H](Cc1c[nH]c2ccccc12)C(=O)N[C@@H](CO)C(=O)O [compound 5] (H-EEG[dS]GGD[Cha]F[dS][dS]YLWS-OH; N-terminus assumed)
201000
